test-summary: in vitro
condition-set: Wistar, rat, liver microsomes
measure-name: microsomal CLint at 1 µM (µL/min/mg)

// below: answered compounds
Cc1cc([C@H]2CC[C@H](c3nnc4n3-c3ccc(Br)cc3CCC4)CC2)no1 :: 76
C#Cc1ccc2c(c1)CCCc1nnc(C3CCN(c4ccccn4)CC3)n1-2 :: 121
Cc1cc([C@H]2CC[C@H](c3nnc4n3-c3ccc(Cl)cc3CC4)CC2)no1 :: 13
Cc1cc([C@H]2CC[C@H](c3nnc4n3-c3ccc(Cl)cc3CCC4)CC2)no1 :: 83
Clc1ccc2c(c1)CCCc1nnc([C@H]3CC[C@H](Oc4ccccn4)CC3)n1-2 :: 124
Clc1ccc2c(c1)CCc1nnc(C3CCN(c4ccccn4)CC3)n1-2 :: 32
Clc1ccc2c(c1)CCc1nnc([C@H]3CC[C@H](Oc4ccccn4)CC3)n1-2 :: 12
Cc1cc([C@H]2CC[C@H](c3nnc4n3-c3ccc(Cl)cc3C3CC43)CC2)no1 (mixture of isomers) :: 1
Clc1ccc2c(c1)CCCc1nnc(C3CCN(c4ccccn4)CC3)n1-2 :: 196
Cc1ccccc1N1CCN(C(=O)N2C[C@@H](C(=O)N3CCCC3)Cc3cc(Cl)ccc32)CC1 :: 170

[P] c1ccc(N2CCC(c3nnc4n3-c3ccccc3CCC4)CC2)nc1
[Q] c1ccc(O[C@H]2CC[C@H](c3nnc4n3-c3ccccc3CCC4)CC2)nc1
[ask] For the two items P and Q , which reports the higher microsomal CLint at 1 µM value? Answer by stating the label of the chosen item.
[reply] Q
